# Test Summary: Cellular toxicity counterscreen (CC50)
# Assay type: cell-based
# Experimental Context: human, HuH-7 hepatoma cells

- Compound: "[N-]=[N+]=N[C@]1(CO)O[C@@H](n2ccc3c(N)ncnc32)[C@@H](F)[C@@H]1O [Example 1]"
  CC50: "> 100 µM"
- Compound: "[N-]=[N+]=N[C@]1(CO)OC(n2cnc3c(N)ncnc32)[C@@H](F)[C@@H]1O (stereo partly drawn) [Example 3]"
  CC50: "> 100 µM"
- Compound: "[N-]=[N+]=N[C@]1(CO)O[C@@H](n2cc(F)c3c(N)ncnc32)[C@@H](F)[C@@H]1O [Example 2]"
  CC50: "> 100 µM"
